# assaySystem: Receptor-type tyrosine-protein kinase FLT3 (Homo sapiens, UniProt P36888, ITD)
# Sequence (P36888 whole entry, looked up, stated change not applied, the tested form may be a part): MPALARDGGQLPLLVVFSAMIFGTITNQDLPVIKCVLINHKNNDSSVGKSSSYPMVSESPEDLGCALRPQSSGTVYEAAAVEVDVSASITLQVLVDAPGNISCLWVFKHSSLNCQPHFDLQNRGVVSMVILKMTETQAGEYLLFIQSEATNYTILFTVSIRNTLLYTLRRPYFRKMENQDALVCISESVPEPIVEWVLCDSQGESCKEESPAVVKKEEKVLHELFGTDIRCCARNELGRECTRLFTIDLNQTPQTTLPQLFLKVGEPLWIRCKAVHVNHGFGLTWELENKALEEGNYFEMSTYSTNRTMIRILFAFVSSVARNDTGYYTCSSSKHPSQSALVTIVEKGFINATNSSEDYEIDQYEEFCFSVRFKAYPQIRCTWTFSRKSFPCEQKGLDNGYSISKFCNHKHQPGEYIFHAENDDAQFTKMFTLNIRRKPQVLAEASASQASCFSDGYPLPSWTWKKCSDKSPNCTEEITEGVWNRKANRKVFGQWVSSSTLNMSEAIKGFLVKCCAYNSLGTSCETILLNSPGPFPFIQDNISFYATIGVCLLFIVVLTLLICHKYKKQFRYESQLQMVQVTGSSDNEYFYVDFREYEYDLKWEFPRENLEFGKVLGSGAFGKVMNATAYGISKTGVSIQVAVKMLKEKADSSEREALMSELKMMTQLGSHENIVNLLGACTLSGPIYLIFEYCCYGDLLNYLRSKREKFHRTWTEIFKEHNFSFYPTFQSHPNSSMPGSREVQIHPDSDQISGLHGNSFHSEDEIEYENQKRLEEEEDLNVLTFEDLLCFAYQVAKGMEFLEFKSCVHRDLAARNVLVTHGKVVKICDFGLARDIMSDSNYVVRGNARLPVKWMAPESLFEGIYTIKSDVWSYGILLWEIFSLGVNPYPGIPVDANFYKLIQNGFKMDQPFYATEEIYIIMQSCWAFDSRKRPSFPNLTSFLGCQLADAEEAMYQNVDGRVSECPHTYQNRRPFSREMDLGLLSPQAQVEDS
# protocolNotes: Inhibition of recombinant human N-terminal GST/His6-fused FLT3 ITD mutant (R571 to S993 residues) expressed in Sf9 insect cells assessed as residual activity using ULightTM-TK peptide as substrate incubated for 90 mins under dark condition by FRET assay
Could you please report measured IC50 for the items listed next?
Answers are plain numbers, in µM.

Solved entries (count: 4):
* O=C1NCc2cc(S(=O)(=O)NCCNC/C=C/c3ccc(-c4cccnc4)cc3)ccc21 | 0.0182
* O=S(=O)(NCCNCc1ccc(-c2cccnc2)cc1)c1cccc2cnccc12 | 0.158
* O=C(CCc1ccc(-c2cnc3[nH]ccc3c2)cc1)NCCNS(=O)(=O)c1cccc2cnccc12 | 0.00135
* O=C1NCc2c1cccc2S(=O)(=O)NCCNC/C=C/c1ccc(-c2cccnc2)cc1 | 0.02

I have 2 molecules here; please give me IC50 for each one.
1. COc1ccc(S(=O)(=O)NCCNCCCc2ccc(-c3cnc4[nH]ccc4c3)cc2)cc1
2. O=C(CCc1ccc(-c2cnc3[nH]ccc3c2)cc1)NCCNS(=O)(=O)c1ccccc1Cl

1: 0.0024; 2: 0.000479

---

# protocolNotes: Lipophilicity, log D of the compound at pH 7.4
# Type: physicochemical
# assayConditions: buffer
propertyName: logD

Reported logD of O=S(=O)(NCCNC/C=C/c1ccc(-c2cccnc2)cc1)c1cccc2cnccc12 : 1.5

---

# assaySystem: Receptor-type tyrosine-protein kinase FLT3 (Homo sapiens, UniProt P36888, ITD)
# protocolNotes: Inhibition of recombinant human N-terminal GST/His6-fused FLT3 ITD mutant (R571 to S993 residues) expressed in Sf9 insect cells assessed as residual activity using ULightTM-TK peptide as substrate incubated for 90 mins under dark condition by FRET assay
propertyName: pIC50
Numbers only, as −log10 of the molar value.

Some molecules with known pIC50 results, for comparison:
- Nc1nccc2c(S(=O)(=O)NCCNC/C=C/c3ccc(-c4cccnc4)cc3)cccc12: 7.62
- CS(=O)(=O)NCCNC/C=C/c1ccc(-c2cccnc2)cc1: 6.19

Hi there! I need pIC50 for each item below, if you can.
1. O=S(=O)(NCCNCCCc1ccc(-c2cccnc2)cc1)c1cccc2cnccc12
2. CN(CCNCCCc1ccc(-c2cccnc2)cc1)S(=O)(=O)c1cccc2cnccc12
3. CN(C/C=C/c1ccc(-c2cccnc2)cc1)CCN(C)S(=O)(=O)c1cccc2cnccc12
4. O=C(CCc1ccc(-c2cnc3[nH]ccc3c2)cc1)NCCNS(=O)(=O)c1ccccc1

1. 8.05
2. 7.32
3. 6.90
4. 9.49

Below are 7 molecules. Give each one its pIC50.
1. O=[N+]([O-])c1ccccc1S(=O)(=O)NCCNC/C=C/c1ccc(-c2cccnc2)cc1
2. O=S(=O)(NCCNC/C=C/c1ccc(-c2cccnc2)cc1)c1cccc2ccccc12
3. O=S(=O)(NCCNCCCc1ccc(-c2cnc3[nH]ccc3c2)cc1)c1cccc2cnccc12
4. COc1ccc(S(=O)(=O)NCCNC(=O)CCc2ccc(-c3cnc4[nH]ccc4c3)cc2)cc1
5. O=C(CCc1ccc(-c2cnc3[nH]ccc3c2)cc1)NCCNS(=O)(=O)c1cc(Cl)cc(Cl)c1
6. O=S(=O)(NCCNCCCc1ccc(-c2cnc3[nH]ccc3c2)cc1)c1ccccc1
7. O=S(=O)(NCCNCCCc1ccc(-c2cnc3[nH]ccc3c2)cc1)c1ccc(Cl)c(Cl)c1

1. 8.07
2. 7.21
3. 8.78
4. 8.74
5. 8.16
6. 8.88
7. 8.13

Report pIC50 for each item below.
1. O=S(=O)(NCCNC/C=C/c1ccc(-c2cccnc2)cc1)c1cccc2cnccc12
2. O=C(CCc1ccc(-c2cnc3[nH]ccc3c2)cc1)NCCNS(=O)(=O)c1ccc(F)cc1

1: 8.02; 2: 9.39

Field: pIC50. Fill in for each record below.
1. O=S(=O)(NCCNC/C=C/c1ccc(-c2cccnc2)cc1)c1ccc2cn[nH]c2c1
2. Nc1ccccc1S(=O)(=O)NCCNC/C=C/c1ccc(-c2cccnc2)cc1
3. O=S(=O)(NCCOCCCc1ccc(-c2cccnc2)cc1)c1cccc2cnccc12
4. CN(C/C=C/c1ccc(-c2cccnc2)cc1)CCNS(=O)(=O)c1cccc2cnccc12
5. Nc1ncccc1-c1ccc(CCC(=O)NCCNS(=O)(=O)c2cccc3cnccc23)cc1

7.77
7.57
7.41
6.87
6.82
